molecular target: PLK1 (Homo sapiens); construct: endogenous in cells; host or cells: HeLa; test: PLK1 protein degradation in HeLa cells, Western blotting (PLK1/GAPDH ratio); type: cell-based; conditions: thymidine block and release, 6 hours compound incubation, 10 points three-fold from 3 μM, PLK1 to GAPDH ratio, read-out: Dmax
Listed below: Dmax values for each entry.
attributeMeasured: Dmax

[[record]]
compound = "COc1cc(C(=O)NC2CCN(CCOCCOCCOCCOCCNc3cccc4c3CN(C3CCC(=O)NC3=O)C4=O)CC2)c(F)cc1Nc1ncc2c(n1)N(C1CCCC1)CC(F)(F)C(=O)N2C (stereo not shown) [Compound 76]"
attributemeasured = "Dmax"
endpointresult = "60 to 80%"

[[record]]
compound = "CN1C(=O)C(F)(F)CN(C2CCCC2)c2nc(Nc3cc(F)c(C(=O)NC4CCN(CCOCCOCCNc5cccc6c5C(=O)N(C5CCC(=O)NC5=O)C6=O)CC4)cc3OCCO)ncc21 (stereo not shown) [Example 97]"
attributemeasured = "Dmax"
endpointresult = "< 60%"

[[record]]
compound = "COc1cc(C(=O)NC2CCCN(CCOCCOCCNc3cccc4c3C(=O)N(C3CCC(=O)NC3=O)C4=O)C2)c(F)cc1Nc1ncc2c(n1)N(C1CCCC1)CC(F)(F)C(=O)N2C (stereo not shown) [Example 104]"
attributemeasured = "Dmax"
endpointresult = "≥ 80%"

[[record]]
compound = "CN1C(=O)C(F)(F)CN(C2CCCC2)c2nc(Nc3cc(F)c(C(=O)NC4CCN(CCOCCOCCNc5cccc6c5C(=O)N(C5CCC(=O)NC5=O)C6=O)CC4)cc3OC3CC3)ncc21 (stereo not shown) [Example 92]"
attributemeasured = "Dmax"
endpointresult = "≥ 80%"

[[record]]
compound = "COc1cc(C(=O)NC2CCN(C(=O)CCCNc3cccc4c3C(=O)N(C3CCC(=O)NC3=O)C4=O)CC2)c(F)cc1Nc1ncc2c(n1)N(C1CCCC1)CC(F)(F)C(=O)N2C (stereo not shown) [Compound 39]"
attributemeasured = "Dmax"
endpointresult = "≥ 80%"

[[record]]
compound = "COc1cc(C(=O)NC2CCN(CCOCCOCCOCC(=O)N[C@H](C(=O)N3C[C@H](O)C[C@H]3C(=O)NCc3ccc(-c4scnc4C)cc3)C(C)(C)C)CC2)c(F)cc1Nc1ncc2c(n1)N(C1CCCC1)CC(F)(F)C(=O)N2C [Compound 81]"
attributemeasured = "Dmax"
endpointresult = "< 60%"

[[record]]
compound = "COc1cc(C(=O)NC2CCN(C(=O)CCOCCNc3cccc4c3C(=O)N(C3CCC(=O)NC3=O)C4=O)CC2)c(F)cc1Nc1ncc2c(n1)N(C1CCCC1)CC(F)(F)C(=O)N2C (stereo not shown) [Compound 32]"
attributemeasured = "Dmax"
endpointresult = "≥ 80%"

[[record]]
compound = "COc1cc(C(=O)N[C@H]2CCN(C(=O)CCN3CCN(c4cccc5c4C(=O)N(C4CCC(=O)NC4=O)C5=O)CC3)C2)c(F)cc1Nc1ncc2c(n1)N(C1CCCC1)CC(F)(F)C(=O)N2C (stereo partly shown) [Compound 131]"
attributemeasured = "Dmax"
endpointresult = "≥ 80%"

[[record]]
compound = "COc1cc(C(=O)N[C@H]2CCN(C(=O)CCCCN3CCN(c4cccc5c4C(=O)N(C4CCC(=O)NC4=O)C5=O)CC3)C2)c(F)cc1Nc1ncc2c(n1)N(C1CCCC1)CC(F)(F)C(=O)N2C (stereo partly shown) [Example 173]"
attributemeasured = "Dmax"
endpointresult = "≥ 80%"

[[record]]
compound = "COc1cc(C(=O)NC2CCN(Cc3cccc(CNC(=O)COc4cccc5c4C(=O)N(C4CCC(=O)NC4=O)C5=O)c3)CC2)c(F)cc1Nc1ncc2c(n1)N(C1CCCC1)CC(F)(F)C(=O)N2C (stereo not shown) [Compound 61]"
attributemeasured = "Dmax"
endpointresult = "60 to 80%"


----------
biological target: PLK1 (Homo sapiens, UniProt P53350); construct: endogenous in cells; host or cells: HeLa; assay: PLK1 protein degradation in HeLa cells, Western blotting (PLK1/GAPDH ratio); assay type: cell-based; details: 6 hours compound incubation, measured only if the grade of Dmax is A or B
Sequence (P53350 whole entry): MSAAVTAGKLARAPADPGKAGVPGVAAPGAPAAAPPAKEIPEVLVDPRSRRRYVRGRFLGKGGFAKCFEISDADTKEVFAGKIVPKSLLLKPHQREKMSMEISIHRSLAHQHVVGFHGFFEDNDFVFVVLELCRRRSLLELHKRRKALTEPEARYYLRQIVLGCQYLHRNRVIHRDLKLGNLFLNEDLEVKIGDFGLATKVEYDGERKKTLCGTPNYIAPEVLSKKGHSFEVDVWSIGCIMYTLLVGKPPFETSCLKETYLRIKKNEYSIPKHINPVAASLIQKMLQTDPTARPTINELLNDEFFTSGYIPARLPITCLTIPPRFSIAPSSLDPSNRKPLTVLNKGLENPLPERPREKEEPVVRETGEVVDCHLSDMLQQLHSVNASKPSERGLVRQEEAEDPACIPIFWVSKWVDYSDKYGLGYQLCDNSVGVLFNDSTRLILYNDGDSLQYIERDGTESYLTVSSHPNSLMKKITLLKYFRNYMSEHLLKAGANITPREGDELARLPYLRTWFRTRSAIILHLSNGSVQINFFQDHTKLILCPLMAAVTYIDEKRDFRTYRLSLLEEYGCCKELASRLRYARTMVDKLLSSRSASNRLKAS
attributeMeasured: DC50

[[record]]
compound = "COc1cc(C(=O)NC2CC3(C2)CN(C(=O)CCNc2cccc4c2C(=O)N(C2CCC(=O)NC2=O)C4=O)C3)c(F)cc1Nc1ncc2c(n1)N(C1CCCC1)CC(F)(F)C(=O)N2C (stereo not drawn)"
endpointresult = "≤ 50 nM"

[[record]]
compound = "COc1cc(C(=O)NC2CCN(CCOCCOCCOCCOCC(=O)Nc3cccc4c3C(=O)N(C3CCC(=O)NC3=O)C4=O)CC2)c(F)cc1Nc1ncc2c(n1)N(C1CCCC1)CC(F)(F)C(=O)N2C (stereo not drawn)"
endpointresult = "≤ 500 nM"

[[record]]
compound = "COc1cc(C(=O)NC2CCN(CC(=O)NCCOCCOCCOCCNc3cccc4c3C(=O)N(C3CCC(=O)NC3=O)C4=O)CC2)c(F)cc1Nc1ncc2c(n1)N(C1CCCC1)CC(F)(F)C(=O)N2C (stereo not drawn)"
endpointresult = "≤ 50 nM"


----------
biological target: PLK1 (Homo sapiens, UniProt P53350); construct: endogenous in cells; host or cells: HeLa; experiment: PLK1 protein degradation in HeLa cells, Western blotting (PLK1/GAPDH ratio); format: cell-based; conditions: 6 hours compound incubation, measured only if the grade of Dmax is A or B
attributeMeasured: DC50

[[record]]
compound = "COc1cc(C(=O)N[C@H]2CCN(CC(=O)NCCCNc3cccc4c3C(=O)N(C3CCC(=O)NC3=O)C4=O)C2)c(F)cc1Nc1ncc2c(n1)N(C1CCCC1)CC(F)(F)C(=O)N2C (stereo partly drawn)"
endpointresult = "≤ 50 nM"

[[record]]
compound = "COc1cc(C(=O)NC2CCN(CCOCCOCCOCCNC(=O)COc3cccc4c3C(=O)N(C3CCC(=O)NC3=O)C4=O)CC2)c(F)cc1Nc1ncc2c(n1)N(C1CCCC1)CC(F)(F)C(=O)N2C (stereo not drawn)"
endpointresult = "≤ 500 nM"

[[record]]
compound = "COc1cc(C(=O)NC2CCN(CCOCCOCCNc3cccc4c3CN(C3CCC(=O)NC3=O)C4=O)CC2)c(F)cc1Nc1ncc2c(n1)N(C1CCCC1)CC(F)(F)C(=O)N2C (stereo not drawn)"
endpointresult = "≤ 50 nM"


----------
Listed below: DC50 values for each entry.
biological target: PLK1 (Homo sapiens); construct: endogenous in cells; host or cells: HeLa; test: PLK1 protein degradation in HeLa cells, Western blotting (PLK1/GAPDH ratio); assay type: cell-based; conditions: 6 hours compound incubation, measured only if the grade of Dmax is A or B
attributeMeasured: DC50

[[record]]
compound = "COc1cc(C(=O)NC2CCN(CCCCCNc3cccc4c3C(=O)N(C3CCC(=O)NC3=O)C4=O)C2)c(F)cc1Nc1ncc2c(n1)N(C1CCCC1)CC(F)(F)C(=O)N2C (stereo not shown)"
attributemeasured = "DC50"
endpointresult = "≤ 500 nM"

[[record]]
compound = "COc1cc(C(=O)NC2CCN(CCCCCCCCCNc3cccc4c3C(=O)N(C3CCC(=O)NC3=O)C4=O)CC2)c(F)cc1Nc1ncc2c(n1)N(C1CCCC1)CC(F)(F)C(=O)N2C (stereo not shown)"
attributemeasured = "DC50"
endpointresult = "≤ 500 nM"

[[record]]
compound = "COc1cc(C(=O)NC2CCN(CCOCCOCCOCCOCCNc3cccc4c3C(=O)N(C3CCC(=O)NC3=O)C4=O)C2)c(F)cc1Nc1ncc2c(n1)N(C1CCCC1)CC(F)(F)C(=O)N2C (stereo not shown)"
attributemeasured = "DC50"
endpointresult = "≤ 50 nM"

[[record]]
compound = "COc1cc(C(=O)NC2CCN(CCOCCOCCOCCOCCCc3cccc4c3C(=O)N(C3CCC(=O)NC3=O)C4=O)CC2)c(F)cc1Nc1ncc2c(n1)N(C1CCCC1)CC(F)(F)C(=O)N2C (stereo not shown)"
attributemeasured = "DC50"
endpointresult = "≤ 50 nM"

[[record]]
compound = "COc1cc(C(=O)NC2CCN(C(=O)N3CCN(c4ccc5c(c4)C(=O)N(C4CCC(=O)NC4=O)C5=O)CC3)CC2)c(F)cc1Nc1ncc2c(n1)N(C1CCCC1)CC(F)(F)C(=O)N2C (stereo not shown)"
attributemeasured = "DC50"
endpointresult = "≤ 500 nM"

[[record]]
compound = "COc1cc(C(=O)NC2CCN(CCCOCCCOCCCOCCNc3cccc4c3C(=O)N(C3CCC(=O)NC3=O)C4=O)CC2)c(F)cc1Nc1ncc2c(n1)N(C1CCCC1)CC(F)(F)C(=O)N2C (stereo not shown)"
attributemeasured = "DC50"
endpointresult = "≤ 50 nM"

[[record]]
compound = "COc1cc(C(=O)N[C@H]2CCN(C(=O)CN3CCN(c4cccc5c4C(=O)N(C4CCC(=O)NC4=O)C5=O)CC3)C2)c(F)cc1Nc1ncc2c(n1)N(C1CCCC1)CC(F)(F)C(=O)N2C (stereo partly shown)"
attributemeasured = "DC50"
endpointresult = "≤ 50 nM"

[[record]]
compound = "COc1cc(C(=O)NC2CCN(CCOCCNC(=O)COc3cccc4c3C(=O)N(C3CCC(=O)NC3=O)C4=O)CC2)c(F)cc1Nc1ncc2c(n1)N(C1CCCC1)CC(F)(F)C(=O)N2C (stereo not shown)"
attributemeasured = "DC50"
endpointresult = "≤ 500 nM"

[[record]]
compound = "CCC(C)Oc1cc(C(=O)NC2CCN(CCOCCOCCNc3cccc4c3C(=O)N(C3CCC(=O)NC3=O)C4=O)CC2)c(F)cc1Nc1ncc2c(n1)N(C1CCCC1)CC(F)(F)C(=O)N2C (stereo not shown)"
attributemeasured = "DC50"
endpointresult = "> 500 nM"

[[record]]
compound = "COc1cc(C(=O)NCCCOCCCOCCNc2cccc3c2C(=O)N(C2CCC(=O)NC2=O)C3=O)c(F)cc1Nc1ncc2c(n1)N(C1CCCC1)CC(F)(F)C(=O)N2C (stereo not shown)"
attributemeasured = "DC50"
endpointresult = "≤ 50 nM"

